Target: T1, GFP-9S library array, motif 4 ND N98L;D124T (synthetic construct, N98L;D124T)
T1 chain: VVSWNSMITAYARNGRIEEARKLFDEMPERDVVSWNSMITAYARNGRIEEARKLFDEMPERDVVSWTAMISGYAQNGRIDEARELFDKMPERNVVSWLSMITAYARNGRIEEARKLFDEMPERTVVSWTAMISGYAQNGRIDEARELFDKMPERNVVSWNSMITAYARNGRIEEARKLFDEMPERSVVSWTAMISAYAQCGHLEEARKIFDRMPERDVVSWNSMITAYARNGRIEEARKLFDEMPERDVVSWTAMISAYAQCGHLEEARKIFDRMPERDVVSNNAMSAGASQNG
Test: high-throughput RNA pulldown from lysate on Ni-NTA beads; HRP: 50 mM Tris pH 8, 150 mM NaCl, 1 mM beta-mercaptoethanol, 50 ug/ml BSA, 3 ug/ml yeast RNA, 0.5% heparin; ITC and FP: Tris pH 8, 200 mM KCl, 5% glycerol; MST: 50 mM Tris pH 8, 200 mM NaCl, 1 mM DTT, BSA, heparin, 0.05% Tween 20
Settings: tags: N-terminal His-eGFP; label: 5' Cy5
Property Label: pKd
The scale used: pKd is minus the common logarithm of the concentration in molar units.

AUUAGACGUGA (ssRNA) [Cy5-rpoA-G]
6.69

Switching to the query record.
pKd for AUUACACGUGA (ssRNA) [Cy5-rpoA] is 6.99
